These measurements were taken from ChEMBL document CHEMBL5375967.

assay: MRT in dog at 1 mg/kg, iv measured upto 24 hrs by LC-MS/MS analysis; type: ADME, organism-based, Canis lupus familiaris; conditions: in vivo
measured.endpoint: MRT

molecule: N[C@H](CO)Cn1ccc(-c2ccc(Oc3ncc(-c4cc[nH]n4)cc3F)cc2)n1
reported.measurement: 28 h

* * *

assay: MRT in C57BL/6 mouse at 1 mg/kg, iv measured upto 24 hrs by LC-MS/MS analysis; format: ADME, organism-based; conditions: in vivo

molecule: N[C@H](CO)Cn1ccc(-c2ccc(Oc3ncc(-c4cc[nH]n4)cc3F)cc2)n1
MRT [h]: 3.3

* * *

# reported microsomal CLint; entries follow
assay: in vitro; conditions: rat, liver microsomes

molecule: Cc1ccc(Oc2ccc(-c3nnn(CCN)n3)cc2)cc1
measurement.units: µL/min/mg
comparison.symbol: =
microsomal CLint: 266
//
molecule: N[C@H](CO)Cn1nnc(-c2ccc(Oc3ncc(Cl)cc3F)cc2)n1
measurement.units: µL/min/mg
comparison.symbol: <
microsomal CLint: 25
//
molecule: N[C@H](CO)Cc1nc(-c2ccc(Oc3ccc(-c4cc[nH]n4)cn3)cc2)no1
measurement.units: µL/min/mg
comparison.symbol: <
microsomal CLint: 25
//
molecule: N[C@@H](CC(=O)O)Cn1nnc(-c2ccc(Oc3ncc(Cl)cc3F)cc2)n1
measurement.units: µL/min/mg
comparison.symbol: <
microsomal CLint: 25
//
molecule: N[C@H](CO)Cn1ccc(-c2ccc(Oc3ncc(-c4cc[nH]n4)cc3F)cc2)n1
measurement.units: µL/min/mg
comparison.symbol: =
microsomal CLint: 179
//
molecule: N[C@@H](CO)Cn1nnc(-c2ccc(Oc3ncc(Cl)cc3F)cc2)n1
measurement.units: µL/min/mg
comparison.symbol: <
microsomal CLint: 25
//
molecule: N[C@H](CCO)Cn1nnc(-c2ccc(Oc3ncc(Cl)cc3F)cc2)n1
measurement.units: µL/min/mg
comparison.symbol: =
microsomal CLint: 94

* * *

experiment: Volume of distribution at steady state in Wistar rat at 1 mg/kg, iv measured upto 24 hrs by LC-MS/MS analysis; type: ADME, organism-based; details: in vivo, read-out: Vdss
measured.endpoint: Vd (L/kg)

molecule: N[C@H](CO)Cn1ccc(-c2ccc(Oc3ncc(-c4cc[nH]n4)cc3F)cc2)n1
measurement.units: L/kg
reported.measurement: 6.9

* * *

assay: Half life in C57BL/6 mouse at 1 mg/kg, iv measured upto 24 hrs by LC-MS/MS analysis; type: ADME, organism-based; conditions: in vivo
measured.endpoint: half-life (h)

molecule: N[C@H](CO)Cn1ccc(-c2ccc(Oc3ncc(-c4cc[nH]n4)cc3F)cc2)n1
reported.measurement: 3.4

* * *

experiment: in vivo; settings: Sprague-Dawley, rat, po, 3 mg/kg
measured.endpoint: AUC(0-inf)

molecule: N[C@H](CO)Cn1ccc(-c2ccc(Oc3ncc(-c4cc[nH]n4)cc3F)cc2)n1
reported.measurement: 3.87 µM·h
--
molecule: N[C@H](CO)Cn1nnc(-c2ccc(Oc3ncc(Cl)cc3F)cc2)n1
reported.measurement: 14.7 µM·h
--
molecule: N[C@H](CO)Cc1nc(-c2ccc(Oc3ccc(-c4cc[nH]n4)cn3)cc2)no1
reported.measurement: 4.2 µM·h
--
molecule: N[C@@H](CO)Cn1nnc(-c2ccc(Oc3ncc(Cl)cc3F)cc2)n1
reported.measurement: 0.369 µM·h

* * *

Overview of reported microsomal CLint across a group of compounds:
test: in vitro; conditions: human, liver microsomes

molecule: N[C@H](CO)Cc1nc(-c2ccc(Oc3ccc(-c4cc[nH]n4)cn3)cc2)no1
microsomal CLint: < 25 µL/min/mg
--
molecule: N[C@H](CCO)Cn1nnc(-c2ccc(Oc3ncc(Cl)cc3F)cc2)n1
microsomal CLint: 40 µL/min/mg
--
molecule: N[C@H](CO)Cn1ccc(-c2ccc(Oc3ncc(-c4cc[nH]n4)cc3F)cc2)n1
microsomal CLint: < 25 µL/min/mg
--
molecule: Cc1ccc(Oc2ccc(-c3nnn(CCN)n3)cc2)cc1
microsomal CLint: 396 µL/min/mg
--
molecule: N[C@@H](CO)Cn1nnc(-c2ccc(Oc3ncc(Cl)cc3F)cc2)n1
microsomal CLint: < 25 µL/min/mg
--
molecule: N[C@@H](CC(=O)O)Cn1nnc(-c2ccc(Oc3ncc(Cl)cc3F)cc2)n1
microsomal CLint: < 25 µL/min/mg
--
molecule: N[C@H](CO)Cn1nnc(-c2ccc(Oc3ncc(Cl)cc3F)cc2)n1
microsomal CLint: < 25 µL/min/mg
